Each record here notes measured half-life.
# Tgt: leucine aminopeptidase (Sus scrofa, UniProt P28839)
# Construct: purchased Sigma, UK type III-CP (catalogue number not given); host or cells: porcine kidney
# Sequence (P28839 whole entry): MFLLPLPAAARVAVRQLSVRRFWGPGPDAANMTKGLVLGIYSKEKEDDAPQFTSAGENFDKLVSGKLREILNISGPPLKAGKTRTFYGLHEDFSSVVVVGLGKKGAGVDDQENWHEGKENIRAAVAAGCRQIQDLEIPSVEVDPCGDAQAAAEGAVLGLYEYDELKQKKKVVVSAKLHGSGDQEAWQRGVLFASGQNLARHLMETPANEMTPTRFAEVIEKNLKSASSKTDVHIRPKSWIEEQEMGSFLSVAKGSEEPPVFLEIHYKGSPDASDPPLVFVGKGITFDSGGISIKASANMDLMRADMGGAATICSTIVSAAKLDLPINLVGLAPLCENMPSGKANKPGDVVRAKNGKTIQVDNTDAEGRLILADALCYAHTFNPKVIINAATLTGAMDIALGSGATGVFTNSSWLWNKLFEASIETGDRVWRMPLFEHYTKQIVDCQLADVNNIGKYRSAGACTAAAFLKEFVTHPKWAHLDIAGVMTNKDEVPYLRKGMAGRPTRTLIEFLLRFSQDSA
# Method Description: Hydrolysis kinetics in leucine aminopeptidase solution
# Assay type: in vitro ADME, porcine
# Run Conditions: pig; 50 mM phosphate buffer pH 7.4, 37° C., leucine aminopeptidase 25 U/ml
Where no end group is shown, it is not given here.
Please reply with the bare figure in h and do not write the unit itself.

Use the examples below as a reference point.
[[record]]
substance = "H-KKKKKKRPKPQQFFGLM-NH2 [(Lys)6-Substance P-NH2]"
tgt = "leucine aminopeptidase (Sus scrofa, UniProt P28839)"
assay_metric = "half-life"
value_unit = "h"
reported_measurement = 5.78

[[record]]
substance = "H-YGGFLKEEEEK-OH [Leu-Enkephalin-(Lys-Glu4-Lys)-OH]"
tgt = "leucine aminopeptidase (Sus scrofa, UniProt P28839)"
assay_metric = "half-life"
value_unit = "h"
reported_measurement = 0.183

[[record]]
substance = "H-KKKKKKYGGFL-OH [(Lys)6-Leu-Enkephalin-OH, H-Lys6 Tyr-Gly-Gly-Phe-Leu-OH]"
tgt = "leucine aminopeptidase (Sus scrofa, UniProt P28839)"
assay_metric = "half-life"
value_unit = "h"
reported_measurement = 0.45


Query: State the recorded half-life for this entry: YGGFLKKKKKK [Leu-Enkephalin-(Lys)6-OH, H-Tyr-Gly-Gly-Phe-Leu-Lys6-OH]
Response: 1.2

Query: Next entry: H-WAGGDASGEKEKEKE-OH [DSIP-(Lys-Glu)3-OH]
Response: 2.42

Query: Next entry: H-RPKPQQFFGLMKKKKKK-NH2 [Substance P-(Lys)6-NH2]
Response: 1.1

Query: Next entry: H-YGGFLKEEEKK-OH [Leu-Enkephalin-Lys-(Glu)3-(Lys)2-OH]
Response: 0.095

###

Each record here notes measured pseudo first-order rate constant for the degradation.
# Tgt: leucine aminopeptidase (Sus scrofa, UniProt P28839)
# Construct: purchased Sigma, UK type III-CP (catalogue number not given); host or cells: porcine kidney
# Method Description: Hydrolysis kinetics in leucine aminopeptidase solution
# Type: in vitro ADME, porcine
# Run Conditions: 50 mM phosphate buffer pH 7.4, 37° C., leucine aminopeptidase 25 U/ml
Where a SMILES comes first, the peptide text is derived from it. [ ]: non-standard residue; d: D form. Orn = NCCC[C@H](N)C(=O)O; Dab = NCC[C@H](N)C(=O)O; Dap = NC[C@H](N)C(=O)O
The answer consists of two parts: a number and, after it, its unit.

[[record]]
compound = "CC(C)C[C@H](NC(=O)[C@H](Cc1ccccc1)NC(=O)CNC(=O)CNC(=O)[C@@H](N)Cc1ccc(O)cc1)C(=O)N[C@@H](CN)C(=O)N[C@@H](CN)C(=O)N[C@@H](CN)C(=O)N[C@@H](CN)C(=O)N[C@@H](CN)C(=O)N[C@@H](CN)C(=O)O [Leu-Enkephalin-(Dpr)6-OH, H-Tyr-Gly-Gly-Phe-Leu-(Dpr)6-OH] (H-YGGFL[Dap][Dap][Dap][Dap][Dap][Dap]-OH)"
tgt = "leucine aminopeptidase (Sus scrofa, UniProt P28839)"
reported_measurement = "0.17 min⁻¹"


Query: State the recorded pseudo first-order rate constant for the degradation for this entry: CC(C)C[C@H](NC(=O)[C@H](Cc1ccccc1)NC(=O)CNC(=O)CNC(=O)[C@@H](N)Cc1ccc(O)cc1)C(=O)N[C@@H](CCN)C(=O)N[C@@H](CCN)C(=O)N[C@@H](CCN)C(=O)N[C@@H](CCN)C(=O)N[C@@H](CCN)C(=O)N[C@@H](CCN)C(=O)O [Leu-Enkephalin-(Dbu)6-OH, H-Tyr-Gly-Gly-Phe-Leu-(Dbu)6-OH] (H-YGGFL[Dab][Dab][Dab][Dab][Dab][Dab]-OH)
Response: 0.025 min⁻¹

Query: Next entry: CC(C)C[C@H](NC(=O)[C@H](Cc1ccccc1)NC(=O)CNC(=O)CNC(=O)[C@@H](N)Cc1ccc(O)cc1)C(=O)N[C@@H](CCCN)C(=O)N[C@@H](CCCN)C(=O)N[C@@H](CCCN)C(=O)N[C@@H](CCCN)C(=O)N[C@@H](CCCN)C(=O)N[C@@H](CCCN)C(=O)O [Leu-Enkephalin-(Orn)6-OH, H-Tyr-Gly-Gly-Phe-Leu-(Orn)6-OH] (H-YGGFL[Orn][Orn][Orn][Orn][Orn][Orn]-OH)
Response: 0.0064 min⁻¹

Hello, the source for this data is patent US7414107B2, in case you need it.
